# measurementTarget: MAPK14 (human) (UniProt Q16539)
# Sequence (Q16539 whole entry, looked up): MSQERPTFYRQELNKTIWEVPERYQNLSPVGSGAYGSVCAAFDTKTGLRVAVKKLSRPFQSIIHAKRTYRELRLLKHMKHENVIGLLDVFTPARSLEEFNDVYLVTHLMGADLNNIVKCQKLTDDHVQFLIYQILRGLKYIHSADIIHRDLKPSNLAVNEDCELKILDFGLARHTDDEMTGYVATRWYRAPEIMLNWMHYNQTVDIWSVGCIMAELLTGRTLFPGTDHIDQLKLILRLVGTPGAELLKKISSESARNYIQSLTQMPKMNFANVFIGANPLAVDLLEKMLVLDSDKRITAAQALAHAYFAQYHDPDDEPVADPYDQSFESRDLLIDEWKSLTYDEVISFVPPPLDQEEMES
measurementLabel: IC50 (nM)
Dear colleague, please return just the value in nM, with no unit written.

Read off the recorded IC50 for `C=CCCc1nc(OCc2ccc(F)cc2F)c(Cl)c(=O)n1C(C)C`
164

Read off the recorded IC50 for `CC(C)n1c(NCC(=O)NCCO)nc(OCc2ccc(F)cc2F)c(Br)c1=O`
221

Read off the recorded IC50 for `CC(C)n1c(OCCNC(N)=O)nc(OCc2ccc(F)cc2F)c(Br)c1=O`
2.6

Read off the recorded IC50 for `CC(C)n1c(CCCC(=O)NCCO)nc(OCc2ccc(F)cc2F)c(Br)c1=O`
600

Read off the recorded IC50 for `CC(C)n1c(N2CCN(C(=O)C(C)(C)N)CC2)nc(OCc2ccc(F)cc2F)c(Br)c1=O`
531

Read off the recorded IC50 for `CC(=O)N[C@@H]1CCN(c2nc(OCc3ccc(F)cc3F)c(Cl)c(=O)n2C(C)C)C1`
578

Read off the recorded IC50 for `CC(C)n1c(N2CC[C@H](NC(=O)C(C)(C)O)C2)nc(OCc2ccc(F)cc2F)c(Cl)c1=O`
864

Read off the recorded IC50 for CC(C)n1c(N2CCC(NC(=O)CN)C2)nc(OCc2ccc(F)cc2F)c(Br)c1=O (centres undefined)
217

Read off the recorded IC50 for `CC(C)n1c(N2CC[C@@H](NC(=O)OCc3ccccn3)C2)nc(OCc2ccc(F)cc2F)c(Br)c1=O`
1220

Data origin: the Kinase Knowledgebase extract (Sharma et al. 2016)
